Overview of reported Kd across a group of binders:
tested-on: T1, mouse FAP protein (mouse, UniProt P97321 1-761)
T1 construct: also called murine FAP
protocol-text: method not stated

Illustrative cases are given below, each with its answer.
[
  {
    "binder": "FAP-C3 parental (scFv, the format in the KD assay is told only as 'SCFV'; also called FAP-C3SCFVWT; FAP #4) scFv: EIVLTQSPGTLSLSPGERATLSCRASQSVGHYLAWYQQKPGQAPRLLIYDASNRAIDIPDRFSGSGSGTEFTLTISRLEPEDFAVYYCQQYYNNWPPLTFGGGTKVEIKGGGGSGGGGSGGGGSGGGGSDVQLVESGGGVVRPGESLTLSCAASGFTFSNYDMGWVRQAPGEGLEWVSGIRGRGGSTYYADSVKGRFTISRDSSKNTLYLQMNSLRAEDTAVYYCAKENNRHSFFEYWGLGTLVTVSS",
    "Kd": "33 nM"
  },
  {
    "binder": "FAP-A11 VK3-VH1 (scFv, also called FAP-A11VK3VH1 (RS, NNN)) scFv: EIVLTQSPGTLSLSPGERATLSCRASQPIRSYLAWYQQKPGQAPRLLIFSASNRATGIPDRFSGSGSGTEFTLTISSLEPEDFAVYYCQQYYDWPPYTFGGGTKVEIKGGGGSGGGGSGGGGSGGGGSDVQLVESGGGLVQPGGSLRLSCAASGFSMSNFAMTWVRQAPGEGLEWVSGIRGSGTTYYAESVKGRFTVSRDNSKNTLYLQMNSLRAEDTAIYYCAKTWGTEYFDYWGLGTLVTVSS",
    "Kd": "< 0.02 nM"
  }
]

// Kd lookup, binder = FAP-A11 VK3-VH13 (FAP #2) (scFv, format in the KD assay not described; also called FAP-A11VK3VH13 (RS, QQQ); A11 VK3/VH3) scFv: EIVLTQSPGTLSLSPGERATLSCRASQPIRSYLAWYQQKPGQAPRLLIFSASNRATGIPDRFSGSGSGTEFTLTISSLEPEDFAVYYCQQYYDWPPYTFGGGTKVEIKGGGGSGGGGSGGGGSGGGGSDVQLVESGGGLVQPGGSLRLSCAASGFSMSNFAMTWVRQAPGEGLEWVSGIRGSGTTYYAESVKGRFTVSRDQSKQTLYLQMQSLRAEDTAIYYCAKTWGTEYFDYWGLGTLVTVSS , result: < 0.02 nM
